These data points were gathered from patent US8697888B2.

- test_system: UniProt P11229
- Sequence (P11229 1-460): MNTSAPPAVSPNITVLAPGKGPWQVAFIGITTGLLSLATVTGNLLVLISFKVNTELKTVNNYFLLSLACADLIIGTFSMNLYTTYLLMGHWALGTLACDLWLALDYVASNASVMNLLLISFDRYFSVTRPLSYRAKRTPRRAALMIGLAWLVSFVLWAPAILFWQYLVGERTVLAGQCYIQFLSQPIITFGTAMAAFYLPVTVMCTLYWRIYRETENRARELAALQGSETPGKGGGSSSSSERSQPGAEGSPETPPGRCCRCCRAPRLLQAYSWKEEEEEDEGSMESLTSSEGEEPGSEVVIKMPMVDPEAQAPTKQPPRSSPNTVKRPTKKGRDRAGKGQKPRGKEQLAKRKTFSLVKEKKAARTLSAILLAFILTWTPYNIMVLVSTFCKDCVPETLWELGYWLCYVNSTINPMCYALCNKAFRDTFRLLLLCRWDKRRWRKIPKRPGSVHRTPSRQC
- experiment: mAChR M1 cell-based functional assay (calcium mobilization, antagonist mode)
- condition_summary: concentration of antagonist decreasing calcium flux by 50%; EC80 acetylcholine response; CHO-K1 cells expressing mAChR M1; read-out: Potency (IC50)
readout_name: IC50

{"columns": ["compound", "result"],
 "data": [
  ["O=C(C1CN(S(=O)(=O)c2cccc3nonc23)C1)N1CCN(c2ccncc2)CC1 [B8]", "0.29 µM"],
  ["O=C(C1CN(S(=O)(=O)c2cccc3cnc(Cl)cc23)C1)N1CCN(c2ccncc2)CC1 [B19]", "0.78 µM"]
]}

Please give IC50, item by item, for the list that follows.
1. O=C(C1CN(S(=O)(=O)c2ccc(Cl)cn2)C1)N1CCN(c2ccncc2)CC1 [B42]
2. Cn1ccc(-c2ccccc2S(=O)(=O)N2CC(C(=O)N3CCN(c4ccncc4)CC3)C2)n1 [B64]
3. O=C(C1CN(S(=O)(=O)c2cccc(Cl)c2Cl)C1)N1CCN(c2ccncc2)CC1 [B16]
4. O=C(C1CN(S(=O)(=O)c2ccc(OC(F)F)cc2)C1)N1CCN(c2ccncc2)CC1 [B63]
5. O=C(C1CN(S(=O)(=O)c2cccc(-n3cnnn3)c2)C1)N1CCN(c2ccncc2)CC1 [B72]
6. Cc1nc(-c2cccc(S(=O)(=O)N3CC(C(=O)N4CCN(c5ccncc5)CC4)C3)c2)no1 [B71]
7. O=C(C1CN(S(=O)(=O)c2cc(Cl)ccc2F)C1)N1CCN(c2ccncc2)CC1 [B35]

["> 10 µM", "> 10 µM", "0.62 µM", "> 10 µM", "> 10 µM", "> 10 µM", "> 10 µM"]

Please give IC50, item by item, for the list that follows.
1. O=C(C1CN(S(=O)(=O)c2cccc(F)c2)C1)N1CCN(c2ccncc2)CC1 [B23]
2. O=C(C1CN(S(=O)(=O)c2cccnc2Cl)C1)N1CCN(c2ccncc2)CC1 [B21]
3. CC(C)(C)CS(=O)(=O)N1CC(C(=O)N2CCN(c3ccncc3)CC2)C1 [B43]
4. O=C(C1CN(S(=O)(=O)c2ccc3ccccc3c2)C1)N1CCN(c2ccncc2)CC1 [B77]
5. O=C(C1CN(S(=O)(=O)c2cccc3cnccc23)C1)N1CC2CN(c3ccncc3)CC2C1 (stereo not drawn) [B3]
6. O=C(C1CN(S(=O)(=O)C2CCCCC2)C1)N1CCN(c2ccncc2)CC1 [B47]
7. O=C(C1CN(S(=O)(=O)c2cccc(OC(F)F)c2)C1)N1CCN(c2ccncc2)CC1 [B68]

1. 1.5 µM
2. 0.86 µM
3. > 10 µM
4. > 10 µM
5. 0.057 µM
6. > 10 µM
7. > 10 µM

Please give IC50, item by item, for the list that follows.
1. O=C(C1CN(S(=O)(=O)c2cccc3cnccc23)C1)N1CCc2cccnc2C1 [B51]
2. O=C1CCc2cc(S(=O)(=O)N3CC(C(=O)N4CCN(c5ccncc5)CC4)C3)ccc2N1 [B79]

> 10 µM
> 10 µM
